# Tested on: Hep3B
# Test description: Cytotoxicity assay, MTT colorimetric method
# Assay type: cell-based
# Condition details: Hep3B human liver cancer cell line; 72 hrs treatment; cell viability by MTT
Experimental readout: IC50 (µg/mL)
Give your result in µg/mL as a bare value.

Study these solved cases before continuing.
>  <Molecule>
COC1(c2cc(=O)c3c(ccc4ccccc43)o2)C=CC(=O)C=C1 [compound 15b]

>  <IC50, µg/mL>
0.35

$$$$
>  <Molecule>
O=C1C=CC(O)(c2cc(=O)c3c(ccc4ccccc43)o2)C=C1 [compound 15a]

>  <IC50, µg/mL>
0.09

$$$$
>  <Molecule>
O=C1C=CC(O)(c2cc(=O)c3c(O)cccc3o2)C=C1 [compound 10a]

>  <IC50, µg/mL>
0.35

$$$$
>  <Molecule>
O=C1C=CC(O)(c2cc(=O)c3c(O)cc(O)cc3o2)C=C1

>  <IC50, µg/mL>
0.65

$$$$
>  <Molecule>
COC1(c2cc(=O)c3ccccc3o2)C=CC(=O)C=C1

>  <IC50, µg/mL>
1.45

$$$$

Sure, the documented IC50 for `O=C1C=CC(O)(c2cc(=O)c3ccccc3o2)C=C1` is 0.32

Sure, the documented IC50 for COc1cccc2c1C(=O)c1c(O)c3c(c(O)c1C2=O)C[C@@](O)(C(=O)CO)C[C@@H]3O[C@H]1C[C@H](N)[C@H](O)[C@H](C)O1 [Doxorubicin, reference compound] is 0.36

Sure, the documented IC50 for COc1cc(O)c2c(=O)cc(C3(O)C=CC(=O)C=C3)oc2c1 [compound 18a] is 0.2
